System: HeLa Kyoto;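 further: HeLa Kyoto cells arrested at G1/S by double thymidine block, proteins quantified by TMT10plex mass spectrometry in mild NP-40 versus SDS extracts, three biological replicates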
procedure-summary: solubility in G1/S (NP-40 vs SDS abundance) (log2 ratio); higher = more soluble
experimental-parameters: cell cycle stage: G1/S
value-kind: solubility in G1/S (log2)

Record solubility in G1/S (log2) per entry; entries follow.
1. MTPWLGLIVLLGSWSLGDWGAEACTCSPSHPQDAFCNSDIVIRAKVVGKKLVKEGPFGTLVYTIKQMKMYRGFTKMPHVQYIHTEASESLCGLKLEVNKYQYLLTGRVYDGKMYTGLCNFVERWDQLTLSQRKGLNYRYHLGCNCKIKSCYYLPCFVTSKNECLWTDMLSNFGYPGYQSKHYACIRQKGGYCSWYRGWAPPDKSIINATDP [TIMP3]
2. MSGSMATAEASGSDGKGQEVETSVTYYRLEEVAKRNSLKELWLVIHGRVYDVTRFLNEHPGGEEVLLEQAGVDASESFEDVGHSSDAREMLKQYYIGDIHPSDLKPESGSKDPSKNDTCKSCWAYWILPIIGAVLLGFLYRYYTSESKSS [CYB5B]

Result block:
1: -0.478; 2: -0.0447

Query block: Tell us which solubility in G1/S (log2) value is on record for MAEAGAGLSETVTETTVTVTTEPENRSLTIKLRKRKPEKKVEWTSDTVDNEHMGRRSSKCCCIYEKPRAFGESSTESDEEEEEGCGHTHCVRGHRKGRRRATLGPTPTTPPQPPDPSQPPPGPMQH [PPP1R11]
Result block: -0.804
